biological target: Xanthine dehydrogenase/oxidase (Bos taurus, UniProt P80457); assay: Inhibition of bovine xanthine oxidase assessed as reduction in uric acid formation at 100 uM using xanthine as substrate pretreated for 5 mins followed by substrate addition measured by UV-vis spectrophotometric method relative to control; conditions: cattle
Sequence (P80457 whole entry): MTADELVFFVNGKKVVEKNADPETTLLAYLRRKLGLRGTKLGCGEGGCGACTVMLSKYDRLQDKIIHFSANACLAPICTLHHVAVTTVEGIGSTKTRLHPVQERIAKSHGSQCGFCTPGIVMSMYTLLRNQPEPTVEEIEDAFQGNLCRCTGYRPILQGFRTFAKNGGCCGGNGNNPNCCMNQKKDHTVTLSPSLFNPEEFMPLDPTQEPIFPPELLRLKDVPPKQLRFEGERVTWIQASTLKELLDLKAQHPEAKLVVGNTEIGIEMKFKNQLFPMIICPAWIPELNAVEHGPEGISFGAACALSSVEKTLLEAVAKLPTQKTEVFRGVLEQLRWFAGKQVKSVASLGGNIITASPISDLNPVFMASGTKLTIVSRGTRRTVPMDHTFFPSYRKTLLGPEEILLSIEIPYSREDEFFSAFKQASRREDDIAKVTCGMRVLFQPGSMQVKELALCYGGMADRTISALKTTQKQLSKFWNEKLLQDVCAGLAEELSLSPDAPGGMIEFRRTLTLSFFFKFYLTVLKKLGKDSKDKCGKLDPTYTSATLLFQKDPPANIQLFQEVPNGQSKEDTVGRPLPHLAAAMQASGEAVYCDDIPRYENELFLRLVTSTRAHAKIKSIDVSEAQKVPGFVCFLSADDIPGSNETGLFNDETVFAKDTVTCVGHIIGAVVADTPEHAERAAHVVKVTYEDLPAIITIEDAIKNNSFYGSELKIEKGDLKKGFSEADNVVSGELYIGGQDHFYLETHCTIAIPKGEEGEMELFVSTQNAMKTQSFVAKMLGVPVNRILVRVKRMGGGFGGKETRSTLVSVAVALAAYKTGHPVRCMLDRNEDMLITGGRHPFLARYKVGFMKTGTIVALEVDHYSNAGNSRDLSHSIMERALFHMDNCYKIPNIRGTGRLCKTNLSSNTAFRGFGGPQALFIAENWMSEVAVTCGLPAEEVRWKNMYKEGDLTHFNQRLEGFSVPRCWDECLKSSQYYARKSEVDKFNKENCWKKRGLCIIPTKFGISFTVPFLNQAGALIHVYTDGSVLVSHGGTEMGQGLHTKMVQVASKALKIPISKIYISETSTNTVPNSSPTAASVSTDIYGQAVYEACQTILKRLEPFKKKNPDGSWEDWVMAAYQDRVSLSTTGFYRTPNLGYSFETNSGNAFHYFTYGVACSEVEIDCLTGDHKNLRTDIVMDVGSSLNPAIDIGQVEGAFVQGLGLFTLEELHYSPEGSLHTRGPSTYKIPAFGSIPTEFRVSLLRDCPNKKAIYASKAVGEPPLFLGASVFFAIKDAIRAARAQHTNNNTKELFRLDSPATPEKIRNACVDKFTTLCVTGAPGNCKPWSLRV
endpoint-label: inhibition at 100 µM (%)
Numbers only, in %.

For orientation, consider the following solved cases.
- molecule: "COc1ccc(Nc2ncnc3c2C(c2ccc(O)c(OC)c2)c2c(n[nH]c2C)O3)cc1 (centres undefined)"
  inhibition at 100 µM (%): 65.5
- molecule: "COc1ccc(Nc2ncnc3c2C(c2ccccc2OC)c2c(c(=O)oc4ccccc24)O3)cc1 (centres undefined)"
  inhibition at 100 µM (%): 83.6
- molecule: "COc1ccc(Nc2ncnc3c2C(c2ccc(O)c(OC)c2)c2c(ccc4ccccc24)O3)cc1 (centres undefined)"
  inhibition at 100 µM (%): 33.8

Go through the items and report each one's inhibition at 100 µM.
1. COc1ccc(Nc2ncnc3c2C(c2cccc(Cl)c2)c2ccc4ccccc4c2O3)cc1 (centres undefined)
2. COc1ccc(Nc2ncnc3c2C(c2ccc(Br)cc2)C2=C(CCCC2=O)O3)cc1 (centres undefined)

17.1
67

Go through the items and report each one's inhibition at 100 µM.
1. COc1ccc(Nc2ncnc3c2C(c2ccc(OC)cc2)c2c(ccc4ccccc24)O3)cc1 (centres undefined)
2. COc1ccc(Nc2ncnc3c2C(c2cc(OC)c(OC)c(OC)c2)C2=C(CCCC2=O)O3)cc1 (centres undefined)
3. COc1ccc(Nc2ncnc3c2C(c2cc4ccccc4[nH]2)c2c(c(=O)oc4ccccc24)O3)cc1 (centres undefined)
4. COc1ccc(Nc2ncnc3c2C(c2ccncc2)c2c(n[nH]c2C)O3)cc1 (centres undefined)
5. COc1ccc(Nc2ncnc3c2C(c2ccccc2)c2c(n[nH]c2C)O3)cc1 (centres undefined)
6. COc1ccc(Nc2ncnc3c2C(c2ccc(Cl)cc2)c2c(c(=O)oc4ccccc24)O3)cc1 (centres undefined)

1. 32.6
2. 76.8
3. 18.4
4. 15.1
5. 38.1
6. 67.2

Go through the items and report each one's inhibition at 100 µM.
1. COc1ccc(Nc2ncnc3c2C(c2ccc(OC)c(OC)c2)C2=C(CCCC2=O)O3)cc1 (centres undefined)
2. COc1ccc(Nc2ncnc3c2C(c2cccs2)c2c(n[nH]c2C)O3)cc1 (centres undefined)
3. COc1ccc(Nc2ncnc3c2C(c2ccc(Br)cc2)c2c(c(=O)oc4ccccc24)O3)cc1 (centres undefined)
4. COc1ccc(Nc2ncnc3c2C(c2ccc(O)cc2)c2c(c(=O)oc4ccccc24)O3)cc1 (centres undefined)
5. COc1ccc(Nc2ncnc3c2C(c2ccc(OC)c(OC)c2)c2ccc4ccccc4c2O3)cc1 (centres undefined)

1: 94.2; 2: 19.8; 3: 65.8; 4: 82.4; 5: 39.7

Go through the items and report each one's inhibition at 100 µM.
1. COc1ccc(Nc2ncnc3c2C(c2cccc(C)c2)c2c(n[nH]c2C)O3)cc1 (centres undefined)
2. COc1ccc(Nc2ncnc3c2C(c2ccc(O)c(OC)c2)c2c(c(=O)oc4ccccc24)O3)cc1 (centres undefined)
3. COc1ccc(Nc2ncnc3c2C(c2cccs2)C2=C(CCCC2=O)O3)cc1 (centres undefined)

1. 43.6
2. 92.3
3. 59.1
